Values from patent US20050244490A1

assay: clinical; conditions: male, human, in vivo, po, 100 mg
readoutKind: Cmax

Which Cmax is listed for Nc1nc(=O)n(C2C=CC(CO)O2)cc1F (stereo not shown) ? 6.3 µM

* * *

experiment: clinical; settings: male, human, in vivo, 200 mg, CLtot/F
readoutKind: CL/F (mL/min)
A number alone suffices; assume mL/min.

Which CL/F is listed for Nc1nc(=O)n(C2C=CC(CO)O2)cc1F (stereo not shown) ? 301

* * *

assay: Food effect, fed versus fasted crossover (Cohort 4); settings: human, plasma, oral, 100 mg, AUC(0-τ), 100 MG FASTED, coated tablet, PART B
readoutKind: AUC (ng·h/mL)
A number alone suffices; assume ng·h/mL.

Which AUC is listed for Nc1nc(=O)n(C2C=CC(CO)O2)cc1F (stereo not shown) ? 6110
